Known viability, T/C of a selection of compounds
System: 958667-338-R-J2-PDC tumor spheroids viability;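 further: spheroids exposed to compounds for seven days before readout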
method_summary: Anticancer human tumor 958667-338-R-J2-PDC patient-derived colon adenocarcinoma cell line growth inhibition [PI3K]
condition_context: second compound 0.00316 µM; first compound 0.316 µM; active compounds read low; spheroids with HUVEC and MSC

The following compounds have reported results that may help.
- compound: "CCN1CCN(Cc2ccc(Nc3ncc(F)c(-c4cc(F)c5nc(C)n(C(C)C)c5c4)n3)nc2)CC1 + COc1c(OCCCN2CCOCC2)ccc2c3n(c(=NC(=O)c4cnc(N)nc4)nc12)CCN3"
  measured_property: "viability, T/C"
  result: "68.3%"
- compound: "C#Cc1c(F)ccc2cc(O)cc(-c3ncc4c(N5CC6CCC(C5)N6)nc(OCC56CCCN5CC(F)C6)nc4c3F)c12 (stereo not drawn) + CC(Nc1ccc2c(c1)OCCn1cc(N3C(=O)OCC3C(F)F)nc1-2)C(N)=O"
  measured_property: "viability, T/C"
  result: "110%"

Next:
Value of viability, T/C reported for the compound CCCS(=O)(=O)Nc1ccc(F)c(C(=O)c2c[nH]c3ncc(-c4ccc(Cl)cc4)cc23)c1F + COc1c(OCCCN2CCOCC2)ccc2c3n(c(=NC(=O)c4cnc(N)nc4)nc12)CCN3 is 94.4%
